Tested on: UACC903 melanoma cells (metastatic)
ASSAY_INFO: MTS cell viability assay, UACC 903
Assay type: cell-based
CONDITIONS: Homo sapiens, UACC-903, 24 h, read-out: IC50, cell viability (MTS)
ENDPOINT_LABEL: IC50

# IC50 of Cc1ccc(-c2cc(C(F)(F)F)nn2-c2ccc(S(N)(=O)=O)cc2)cc1 [Celecoxib] = > 100 µM
